tested on: UACC-257 melanoma; experiment: NCI tumour cell line growth inhibition, 48 h
assayReadout: TGI

compound	val
CCCCN(CCCC)C(=O)C(=O)C(C)C(=O)CC (stereo unspecified)	> 100 µM
COC(=O)/C(=C/c1ccc(OC)cc1)NC(=O)c1ccccc1	> 100 µM
C=C1CC2(CCCC3(CC(=C)C(=O)O3)C2(C)C)OC1=O (stereo unspecified)	5.78 µM

Lookup: # TGI lookup, item Cc1ccc(CC(Cc2ccc(C)cc2C(=O)O)C(=O)O)cc1 (stereo unspecified)
Found: > 100 µM

Lookup: Would you kindly repeat that for CCNc1nc2c(ncn2C2CC(O)C(COP(=O)(O)O)O2)c(=O)[nH]1 (stereo unspecified) ?
Found: > 100 µM

Lookup: Would you kindly repeat that for Cc1nc2cc(Nc3nc(Nc4ccc(F)cc4)nc(N4CCN(C)CC4)n3)ccc2n1Cc1ccccc1 ?
Found: 3.3 µM

Lookup: Would you kindly repeat that for NC(Cc1ccnnc1)C(=O)O (stereo unspecified) ?
Found: > 100 µM

Lookup: Would you kindly repeat that for CCc1c(O)c2c(c(O)c1C(C)=O)C(=O)c1c(cc(O)c(C(=O)O)c1C(=O)O)C2=O ?
Found: > 100 µM

Lookup: Would you kindly repeat that for CCSC1=N/C(=C/c2ccccc2O)C(=O)N1 ?
Found: > 100 µM

Lookup: Would you kindly repeat that for C#C[C@]1(O)CC[C@H]2[C@@H]3CCC4=C/C(=N\OCCN(CC)CC)CC[C@]4(C)[C@H]3CC[C@@]21C ?
Found: 16.9 µM

Lookup: Would you kindly repeat that for COc1cc(C)c(C)c(OC(=O)c2c(C)c(C)c(OC)c(C)c2OC)c1C ?
Found: 78.6 µM
